// provenance: patent US10988477B2

molecular target: intracellular GCN2 (phosphorylation of the GCN2 substrate eIF2α) (Homo sapiens); experiment: GCN2 cellular inhibition assay (AlphaScreen SureFire P-eIF2α Ser51, borrelidin-treated U2OS cells); assay type: cell-based; conditions: compounds of Formula II; biomarker assay, phosphorylated eIF2α Ser51 in borrelidin-treated U2OS cells
Sequence (Q9P2K8 whole entry): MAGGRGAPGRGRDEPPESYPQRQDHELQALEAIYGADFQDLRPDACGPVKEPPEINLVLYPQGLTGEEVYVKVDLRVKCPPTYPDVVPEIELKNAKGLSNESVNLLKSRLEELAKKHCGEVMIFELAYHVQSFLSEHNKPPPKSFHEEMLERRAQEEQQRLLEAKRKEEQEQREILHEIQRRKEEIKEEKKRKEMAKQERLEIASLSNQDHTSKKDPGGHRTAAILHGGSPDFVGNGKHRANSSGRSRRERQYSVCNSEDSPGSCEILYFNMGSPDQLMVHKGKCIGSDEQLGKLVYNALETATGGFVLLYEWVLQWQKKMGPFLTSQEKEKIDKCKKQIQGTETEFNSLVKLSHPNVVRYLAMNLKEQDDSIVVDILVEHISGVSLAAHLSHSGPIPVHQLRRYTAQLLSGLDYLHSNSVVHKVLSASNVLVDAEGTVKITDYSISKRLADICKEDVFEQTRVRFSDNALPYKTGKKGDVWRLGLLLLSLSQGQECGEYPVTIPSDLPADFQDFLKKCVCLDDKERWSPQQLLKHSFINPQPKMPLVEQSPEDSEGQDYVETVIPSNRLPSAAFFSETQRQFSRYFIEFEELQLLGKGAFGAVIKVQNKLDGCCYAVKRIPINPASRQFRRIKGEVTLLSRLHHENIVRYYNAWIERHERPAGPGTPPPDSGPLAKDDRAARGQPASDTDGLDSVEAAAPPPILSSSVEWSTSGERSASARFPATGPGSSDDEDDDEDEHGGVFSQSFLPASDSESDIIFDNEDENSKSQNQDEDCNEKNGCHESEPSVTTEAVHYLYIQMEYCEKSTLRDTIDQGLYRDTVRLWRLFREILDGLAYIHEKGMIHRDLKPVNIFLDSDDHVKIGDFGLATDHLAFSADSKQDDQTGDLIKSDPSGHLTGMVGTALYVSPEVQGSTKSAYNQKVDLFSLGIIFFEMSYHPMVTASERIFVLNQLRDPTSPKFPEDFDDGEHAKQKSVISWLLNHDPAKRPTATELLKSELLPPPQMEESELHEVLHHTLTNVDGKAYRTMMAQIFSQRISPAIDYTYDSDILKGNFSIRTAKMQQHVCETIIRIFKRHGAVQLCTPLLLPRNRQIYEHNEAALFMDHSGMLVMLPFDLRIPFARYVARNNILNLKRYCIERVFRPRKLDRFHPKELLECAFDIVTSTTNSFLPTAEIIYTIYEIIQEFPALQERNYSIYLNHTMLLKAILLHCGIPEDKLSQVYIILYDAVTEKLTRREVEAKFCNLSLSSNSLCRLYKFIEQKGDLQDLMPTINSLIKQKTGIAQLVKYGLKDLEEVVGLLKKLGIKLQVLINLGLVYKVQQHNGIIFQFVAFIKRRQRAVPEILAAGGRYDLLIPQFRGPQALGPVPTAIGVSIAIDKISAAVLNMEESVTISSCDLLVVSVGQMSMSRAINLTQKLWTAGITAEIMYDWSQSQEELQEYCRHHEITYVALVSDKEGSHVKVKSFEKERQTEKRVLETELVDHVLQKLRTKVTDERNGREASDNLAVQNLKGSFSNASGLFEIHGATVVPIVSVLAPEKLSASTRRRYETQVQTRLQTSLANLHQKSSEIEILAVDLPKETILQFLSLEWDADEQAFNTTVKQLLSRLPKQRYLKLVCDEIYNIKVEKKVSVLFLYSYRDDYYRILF
pIC50: −log10 of the molar value.
Some molecules, each annotated with its measured pIC50.

Worked set:
COc1cc(-c2cnc3ccc(C(F)F)nn23)cc(N2CCCC(CNS(C)(=O)=O)C2)n1 (stereo not shown) [II-142]: 5.30 to 6.30
NS(=O)(=O)N1CC2OCCN(c3cc(-c4cnc5ccc(C(F)F)nn45)ncn3)C2C1 (stereo not shown) [II-332]: < 5.30
CC1C(c2cn[nH]c2)NCCN1c1cc(-c2cnc3ccc(C(F)(F)F)nn23)ncn1 (stereo not shown) [II-706]: 5.30 to 6.30

# ---- query molecule ----
pIC50 for CS(=O)(=O)CCN1CCCC(c2cc(-c3cnc4ccc(C(F)F)nn34)ncn2)C1 (stereo not shown) [II-48] ? < 5.30
